Read-out: Caspase-3 (Homo sapiens)
experimentDescription: LTEA_HepaRG_CASP3: Life Technologies and Expression Analysis (LTEA) Assay for cysteine-aspartic acid protease (CASP3) using HepaRG (AID 2283477)
condition: mRNA level, 48 h; actives raise or lower the signal
Calls of active or inactive are those of the source. The calls were made as follows: active = hit-call score of the fitted dose curve at least 0.9, where 1 is the maximum; inactive = score below 0.9.
Assign a class; possible classes are active, inactive

Worked examples, 10 molecules total:
{"columns": ["molecule", "discreteLabel"],
 "data": [
  ["CS/C(C)=N/OC(=O)N(C)SN(C)C(=O)O/N=C(\\C)SC", "inactive"],
  ["CNC(=O)ON=CC(C)(C)SC", "inactive"],
  ["CCNc1nc(Cl)nc(NCC)n1", "inactive"],
  ["COP(N)(=O)SC (configuration not stated)", "inactive"],
  ["Fc1ccc(Oc2ccnc3cc(Cl)cc(Cl)c23)cc1", "inactive"],
  ["OC(c1ccc(Cl)cc1)(c1cncnc1)c1ccccc1Cl (configuration not stated)", "inactive"],
  ["CC(C)(C)c1ccc(CSc2cnn(C(C)(C)C)c(=O)c2Cl)cc1", "inactive"],
  ["Cc1c(F)c(F)c(COC(=O)C2C(/C=C(\\Cl)C(F)(F)F)C2(C)C)c(F)c1F (configuration not stated)", "inactive"],
  ["Cc1ccc(-c2c(Cl)nc(C#N)n2S(=O)(=O)N(C)C)cc1", "inactive"],
  ["CCNc1nc(Cl)nc(NC(C)C)n1", "inactive"]
]}

I'd appreciate the recorded outcome for C=CCC1=C(C)C(OC(=O)C2C(C=C(C)C)C2(C)C)CC1=O (configuration not stated) from this test.
inactive

* * *

Read-out: JUN Transcription Factor, JUN (gene 3725)
experimentDescription: LTEA_HepaRG_JUN: Life Technologies and Expression Analysis (LTEA) Assay for JUN Transcription Factor using HepaRG (AID 2283513)
condition: mRNA level, 48 h; actives raise or lower the signal
Activity calls are given as the source filed them. How the source made its calls: active means hit-call score of the fitted dose curve at least 0.9, where 1 is the maximum; inactive means score below 0.9.
Valid outcomes are listed here; reply with one: y (active), n (inactive)

# example entries with known answers
{"columns": ["compound", "discreteLabel"],
 "data": [
  ["C=CC1(C)OC(=O)N(c2cc(Cl)cc(Cl)c2)C1=O (configuration not stated)", "n"],
  ["C=CCC1=C(C)[C@@H](OC(=O)[C@@H]2[C@@H](C=C(C)C)C2(C)C)CC1=O", "n"],
  ["COc1nc(NC(C)C)nc(NC(C)C)n1", "n"]
]}

Here's the next entry for you.
Short answer needed: outcome of this test for COP(N)(=O)SC (configuration not stated) ?
n

* * *

experimentalTarget: Peroxisome proliferator-activated receptor gamma (Homo sapiens)
experimentDescription: ATG_PPARg_TRANS: Attagene TRANS-FACTORIAL HepG2 Assay for human Peroxisome Proliferator-activated Receptor-gamma (PPARg) (AID 2283007)
Records with an inconclusive call do not appear. The source made the active and inactive calls. The calls were made as follows: active = hit-call score of the fitted dose curve at least 0.9, where 1 is the maximum; inconclusive = response in the unintended direction; inactive = score below 0.9.
measuredAttribute: AC50

Guide cases for AC50, answers given:
{"columns": ["compound", "AC50"],
 "data": [
  ["C#CCOS(=O)OC1CCCCC1Oc1ccc(C(C)(C)C)cc1 (centres undefined)", "inactive"],
  ["OC(c1ccc(Cl)cc1)(c1cncnc1)c1ccccc1Cl (centres undefined)", "66.2 µM (active)"],
  ["CC(C)Oc1cc(-n2nc(C(C)(C)C)oc2=O)c(Cl)cc1Cl", "34.9 µM (active)"],
  ["COc1ccc(C(c2ccc(OC)cc2)C(Cl)(Cl)Cl)cc1", "inactive"],
  ["COc1nc(C)nc(NC(=O)NS(=O)(=O)c2ccccc2Cl)n1", "inactive"],
  ["COc1cnc(OC)n2nc(NS(=O)(=O)c3c(OCC(F)F)cccc3C(F)(F)F)nc12", "inactive"],
  ["Cc1ccc(-c2c(Cl)nc(C#N)n2S(=O)(=O)N(C)C)cc1", "9.32 µM (active)"],
  ["CS/C(C)=N/OC(=O)N(C)SN(C)C(=O)O/N=C(\\C)SC", "inactive"]
]}

API: the following record is the query input.
Data request, read-out AC50, for `Cc1cc(Cl)ccc1OCC(=O)O`
inactive
